Measured values drawn from PubChem BioAssay (NCI) for this set.

Tested on: DU-145 prostate
Assay Text: NCI-60 one-dose screen, 48 h (100 = growth as untreated, 0 = no growth, -100 = all killed)
Condition Summary: 10 µM unless noted
Compounds without any hit were thinned out: in the full panel of roughly 83,000, 20% have a hit.
Measurement Kind: growth (%)

| Compound | Measured Target | Unit Annotation | Measurement |
| --- | --- | --- | --- |
| NC(=O)c1c(NC(=O)c2ccc3c(c2)OCO3)sc2c1CCC(=O)C2 | DU-145 prostate | % | 40 |
| COc1cc(CNC(=O)CSc2nc3ccccc3c(=O)n2Cc2cc(OC)c(OC)c(OC)c2)cc(OC)c1OC | DU-145 prostate | % | 108 |
| O=S(=O)(O)CCl | DU-145 prostate | % | 109 |
| Cc1ccc(Nc2ncnc3c2sc2ncccc23)cc1 | DU-145 prostate | % | 108 |
| CCC(=O)Nc1ccccc1C#C/C=C\C#Cc1ccccc1SC | DU-145 prostate | % | 77.3 |
| O=S(=O)(NCCCNc1cc(-c2cn(-c3ccccc3)nc2-c2cccc(O)c2)ccn1)c1ccc(Br)cc1 | DU-145 prostate | % | 31.3 |
| COC12CC(=O)C(C(C)=O)=C(O)C1(C)c1c(O)c(C)c(O)c(C(C)=O)c1O2 (centres undefined) | DU-145 prostate | % | 90.2 |
| COc1cc(NCCN=C(N)NC(N)=NC(C)C)c2ncccc2c1 | DU-145 prostate | % | 103 |
| CN1CCN(CCCOc2ccc3nc(Nc4ccc(C(F)(F)F)c(Cl)c4)ccc3c2)CC1 | DU-145 prostate | % | 20.1 |
| O=C(CCCn1c2c(sc3ccccc32)c(=O)n2nnc(-c3ccccc3)c12)NCCc1cnc[nH]1 | DU-145 prostate | % | -100 |
| Nc1ccc(S(=O)(=O)c2ccc(Cl)cc2)cc1 | DU-145 prostate | % | 104 |
| NS(=O)(=O)c1ccc(NCC(=O)Nc2ccc(-c3nc4ccccc4s3)cc2)cc1 | DU-145 prostate | % | 47 |
| O=Nc1c(-c2c(O)[nH]c3ccc([N+](=O)[O-])cc23)[nH]c2ccc(O)cc12 | DU-145 prostate | % | 6.72 |
| CN(C)c1nc(N)c(N=O)c(N)n1 | DU-145 prostate | % | 113 |
| COc1cc(-c2nc(-c3nc4ccccc4[nH]3)cc3c2[nH]c2ccccc23)cc(OC)c1OC | DU-145 prostate | % | 53.8 |
| O=C1Nc2cc(Cl)ccc2Oc2cc(Oc3ccccc3)ccc21 | DU-145 prostate | % | 71.5 |
| CCC1=C[C@@H]2CN(C1)Cc1c([nH]c3ccccc13)[C@@](C(=O)OC)(c1cc3c(cc1OC)N(C=O)[C@H]1[C@@](O)(C(=O)OC)[C@H](OC(C)=O)[C@]4(CC)[C@@H]5C[C@@H]5CN5CC[C@]31[C@@H]54)C2 | DU-145 prostate | % | -9.76 |
| Cc1cccc(NC(=O)c2sc3nc4c(cc3c2N)CCC4)c1C | DU-145 prostate | % | 10.6 |
| O=C(Nc1ccccc1)OCC1OCOC(COC(=O)Nc2ccccc2)C1OC(=O)Nc1ccccc1 (centres undefined) | DU-145 prostate | % | 43.7 |
| Nc1nn2cc(-c3ccc(Cl)s3)nc2c2ccccc12 | DU-145 prostate | % | 99 |
| CNC(=O)c1cc(Oc2ccc3c(c2)sc2nc(-c4ccc(Cl)cc4)cn23)ccn1 | DU-145 prostate | % | 96.3 |
| Cc1cc(Cl)ccc1OC(C)C(=O)Nc1nnc(C2CC2)s1 (centres undefined) | DU-145 prostate | % | 102 |
| COC(=O)CCCCCCN=Cc1c(O)c(O)c(C(C)C)c2cc(C)c(-c3c(C)cc4c(C(C)C)c(O)c(O)c(C=NCCCCCCC(=O)OC)c4c3O)c(O)c12 | DU-145 prostate | % | 30.6 |
| O=C(OCCCCOC(=O)n1cnc2ccccc21)n1cnc2ccccc21 | DU-145 prostate | % | 105 |
| CCCCCCOc1ccc(C2(Cl)c3ccccc3N(C)c3ccccc32)cc1 | DU-145 prostate | % | 55.7 |
| Nc1nc(N)c2nc(CNc3ccc(C(=O)CC(CCC(=O)O)C(=O)O)cc3)cnc2n1 (centres undefined) | DU-145 prostate | % | 28.9 |
| COc1ccc(C2=CC(c3ccc(Oc4ccnc5cc(Cl)ccc45)c(OC)c3)c3c(nc(OC)[nH]c3=O)N2)cc1 (centres undefined) | DU-145 prostate | % | 75.6 |
| CCC#CC[C@H]1C/C=C2/C(=O)C=C[C@@H]2C/C=C\CCCC(=O)O1 | DU-145 prostate | % | 9.38 |
| COc1cccc(C2CC(=O)Nc3c2c(C)nn3-c2nc3ccccc3[nH]2)c1OC (centres undefined) | DU-145 prostate | % | 76.5 |
| COc1ccc(OC)c(C(=O)c2oc3ccc(Br)cc3c2N)c1 | DU-145 prostate | % | 16.3 |
| CCCn1c(=S)sc2c(Cl)nc(C)nc21 | DU-145 prostate | % | 124 |
| COc1cc(C2C3=C(COC3=O)Nc3c2ccc2c3CCCC2)cc2c1OCO2 (centres undefined) | DU-145 prostate | % | -24.7 |
| O=C(CNC(=O)c1cccc2ccccc12)Nc1ccccc1Oc1ccccc1 | DU-145 prostate | % | 3.85 |
| Nc1nc(Cl)c2c(ncn2Cc2ccc(CCl)cc2)n1 | DU-145 prostate | % | 86.5 |
| COc1cc(OC)c(C(=O)/C=C/c2cccc(C(F)(F)F)c2)c(OC)c1 | DU-145 prostate | % | 11.6 |
| CCNC(=O)C1CCCN1C(=O)C(CCCN=C(N)N)NC(=O)C(CC(C)C)NC(=O)C(CC(C)C)NC(=O)C(Cc1ccc(O)cc1)NC(=O)C(CO)NC(=O)C(Cc1c[nH]c2ccccc12)NC(=O)C(Cc1cnc[nH]1)NC(=O)C1CCC(=O)N1 (centres undefined) | DU-145 prostate | % | 135 |
| O=C1Nc2ccc(Br)cc2C1=N/C=c1\[nH]c(=O)/c(=C/c2ccc(Cl)cc2)s1 | DU-145 prostate | % | 102 |
| CCc1cccc(C)c1NC(=O)c1sc2nc3c(cc2c1N)C(=O)CCC3 | DU-145 prostate | % | 14.2 |
| CCC1CCc2nc3sc(C(=O)Nc4ccccc4F)c(N)c3cc2C1 (centres undefined) | DU-145 prostate | % | 55.8 |
